molecular target: CDK2 (Homo sapiens); test: Phage Library Screening with NGS, CDK2; type: binding; set-up: Full length CDK2 (residues 1-298) with an N-terminal GST-3C-6×his-TEV tag; GST-3C-6×his-TEV (N, cleaved yes); made in house; host or cells: Sf9 (Bac-to-Bac baculovirus); conditions: CDK2, target concentration 100
Numbered stars: 1 amine (or outer) side, 2 acyl side, 3 side chain; on linkers, the order of the positions; unused ones are H or OH. Bridge positions count the residues as written; N and C are the ends. Ends that are not written are not given here. Phenylene(1,4-NHCOCH2)2 = O=C(C[*:1])Nc1ccc(NC(=O)C[*:2])cc1
property-label: phage screen counts, Target Concentration 100

[[record]]
sequence_content = "PSCLSAFFSCY (linker 3-10 via Phenylene(1,4-NHCOCH2)2 (inferred))"
recorded_value = 0

[[record]]
sequence_content = "PFECLSAFFSC (linker 4-11 via Phenylene(1,4-NHCOCH2)2 (inferred))"
recorded_value = 0

[[record]]
sequence_content = "FECLDAFFSC (linker 3-10 via Phenylene(1,4-NHCOCH2)2 (inferred); not fully specified (N-terminus, C-terminus))"
recorded_value = 0

[[record]]
sequence_content = "DPAWWECIVAALECSDR (linker 7-14 via Phenylene(1,4-NHCOCH2)2 (inferred))"
recorded_value = 0


Numbers sourced from patent US20240376151A1.
